biological target: Urotensin-2 receptor (Rattus norvegicus) (UniProt P49684); assay: Allosteric modulation of urotensin-2 receptor in Sprague-Dawley rat thoracic aorta assessed as change in URP-mediated aortic ring contraction by measuring URP Emax at 10^-5M preincubated for 15 mins followed by URP addition relative to KCl (reference value: 118 +/- 2%)
Sequence (P49684 whole entry): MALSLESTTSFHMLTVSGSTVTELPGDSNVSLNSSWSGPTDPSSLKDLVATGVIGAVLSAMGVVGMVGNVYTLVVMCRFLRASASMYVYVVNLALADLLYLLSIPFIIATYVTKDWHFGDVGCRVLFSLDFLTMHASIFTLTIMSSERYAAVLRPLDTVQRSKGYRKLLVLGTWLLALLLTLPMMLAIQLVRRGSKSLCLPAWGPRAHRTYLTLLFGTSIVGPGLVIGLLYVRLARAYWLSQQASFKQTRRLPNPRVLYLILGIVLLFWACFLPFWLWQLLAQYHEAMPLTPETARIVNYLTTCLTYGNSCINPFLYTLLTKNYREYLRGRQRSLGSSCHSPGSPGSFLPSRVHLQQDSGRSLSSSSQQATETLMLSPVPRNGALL
endpoint: Emax (%)

>  <chemical_string>
CNCCCCN1N=C(CCc2nc3ccccc3s2)c2ccccc2N(Cc2cccc3ccccc23)C1=O

>  <endpoint>
Emax

>  <test_result>
99

$$$$
>  <chemical_string>
NCCCCN1N=C(/C=C/c2ccc(O)cc2)c2ccccc2N(Cc2ccc(-c3ccccc3)cc2)C1=O

>  <endpoint>
Emax

>  <test_result>
118

$$$$
>  <chemical_string>
CNCCCN1N=C(CCc2nc3ccccc3s2)c2ccccc2N(Cc2ccc(-c3ccccc3)cc2)C1=O

>  <endpoint>
Emax

>  <test_result>
110

$$$$
>  <chemical_string>
NCCCCN1N=C(CCc2nc3ccccc3s2)c2ccccc2N(Cc2cccc3ccccc23)C1=O

>  <endpoint>
Emax

>  <test_result>
124

$$$$
>  <chemical_string>
NCCCN1N=C(CCc2nc3ccccc3s2)c2ccccc2N(Cc2ccc(-c3ccccc3)cc2)C1=O

>  <endpoint>
Emax

>  <test_result>
99

$$$$
>  <chemical_string>
CNCCCCN1N=C(CCc2nc3ccccc3s2)c2ccccc2N(Cc2ccc(-c3ccccc3)cc2)C1=O

>  <endpoint>
Emax

>  <test_result>
91

$$$$
>  <chemical_string>
NCCCN1N=C(/C=C/c2ccc(O)cc2)c2ccccc2N(Cc2ccc3ccccc3c2)C1=O

>  <endpoint>
Emax

>  <test_result>
111

$$$$

The measured values listed here are drawn from ChEMBL document CHEMBL4052818.
